# Test system: P388 leukemia ip, CD2F1 mice, survival T/C
# assay_text: NCI In Vivo Anticancer Drug Screen. Data for tumor model P388 Leukemia (intraperitoneal) in CD2F1 (CDF1) mice
# conditions: endpoint: median survival time; dose: 6.25 mg/kg/injection; schedule: Q01DX005 (ip); vehicle: Klucel (hydroxypropylcellulose) (HPC); higher = longer survival
Toxic doses and inconclusive results are not listed.
quantity_measured: T/C

Lookup: // output T/C; input CC12CCC(OC3OC(CO)C(O)C(O)C3O)C=C1CCC1C2CCC2(C)C(c3ccc(=O)oc3)CCC12 (stereo not given) ; system P388 leukemia ip, CD2F1 mice, survival T/C
Found: 95 % of control

Lookup: Provide the reported T/C (system: P388 leukemia ip, CD2F1 mice, survival T/C) for CC(=O)O.CC(=O)O.CC[OH+]CC[OH+]CC[OH+]C1CCCC2CCC[N-]C21.[Zn] (stereo not given)
Found: 111 % of control

Lookup: Under P388 leukemia ip, CD2F1 mice, survival T/C, report T/C for `C1CN(/N=N/N2CCC2)C1`
Found: 98 % of control

Lookup: # lookup: P388 leukemia ip, CD2F1 mice, survival T/C T/C, key = `C=C(Br)C(=NC(C)(C)C)Nc1ccc(Cl)cc1`
Found: 107 % of control

Lookup: Give the observed T/C of COc1ccc(C2=CC3CCC(C2)N3C)cc1 (stereo not given) for P388 leukemia ip, CD2F1 mice, survival T/C.
Found: 96 % of control
